# methodSummary: reversal of MRP1-mediated doxorubicin resistance, pilot screen, H69AR cells, doxorubicin co-treatment (AID 601)
# experimentalConditions: H69AR cells + 2 uM doxorubicin, CellTiter-Glo, 72 h; measured here: viability with 2 uM doxorubicin; at 10 µM; stronger effect = lower value

{"molecule": "CC(C)CCNC(=O)[C@H](CC(C)C)NC(=O)[C@H]1O[C@@H]1C(=O)O", "viability": "94.5%"}
{"molecule": "CC(=O)NCCOc1cccc(OCCNC(C)=O)c1", "viability": "91.7%"}
{"molecule": "COc1cc(NC(=O)c2cc(CC(C)C)on2)c(OC)cc1Cl", "viability": "92.2%"}
{"molecule": "CCC(c1nnnn1C(C)(C)C)N1CCN(C2CCCC2)CC1 (configuration not stated)", "viability": "89.3%"}
{"molecule": "CN1CCC(=C2c3ccccc3CC(=O)c3sccc32)CC1", "viability": "79.6%"}
{"molecule": "CCc1nc2sc3c(c2c(=O)o1)CCCC3", "viability": "96.6%"}
{"molecule": "CCCC(=O)N(c1ccc2oc(=O)sc2c1)S(=O)(=O)c1ccccc1", "viability": "80.9%"}
{"molecule": "O=C(NC1CCCCC1)N(Cc1ccccc1)Cc1ccco1", "viability": "97.3%"}
{"molecule": "OCCOCCN1CCN(C(c2ccccc2)c2ccc(Cl)cc2)CC1 (configuration not stated)", "viability": "89%"}
{"molecule": "Cn1c(SCC(=O)O)nnc1C1CCCCC1", "viability": "93.9%"}
{"molecule": "CCC1C(=O)N=C(SCC(=O)Nc2cccc3ccccc23)NC1=O (configuration not stated)", "viability": "92.1%"}
{"molecule": "COc1cccc(NC(=O)COc2ccccc2C(N)=O)c1", "viability": "88.7%"}
{"molecule": "O=C(NCC1CCCO1)C1CCCN(Cc2cnn(-c3ccccc3)c2-n2cccc2)C1 (configuration not stated)", "viability": "44.5%"}
{"molecule": "O=C(CCc1ccccc1)Nc1ccncc1", "viability": "92.6%"}
{"molecule": "COc1ccc(C2=Nn3c(nnc3-c3ccccc3)SC2)cc1OC", "viability": "79.3%"}
{"molecule": "COC(=O)C1=C(C)NC(=O)C1(NC(=O)CN1CCCC1=O)C(F)(F)F (configuration not stated)", "viability": "98.3%"}
{"molecule": "COCCn1nnnc1C(c1cccs1)N1CCN(c2cc(C)ccc2C)CC1 (configuration not stated)", "viability": "90.1%"}
{"molecule": "CC(C)(C)Nc1nc(NC(C)(C)C)nc(-n2ccnc2)n1", "viability": "87.6%"}
{"molecule": "CC1CCc2c(sc(N)c2C(N)=O)C1 (configuration not stated)", "viability": "84.9%"}
{"molecule": "c1ccc(CC2CCN(C(c3cccs3)c3nnnn3C3CCCC3)CC2)cc1 (configuration not stated)", "viability": "93.7%"}
{"molecule": "C=CCn1c(SCc2ccc(C#N)cc2)nnc1-c1cccc(Cl)c1", "viability": "84%"}
{"molecule": "O=c1sc(Nc2ccccc2)nc2ccsc12", "viability": "78%"}
{"molecule": "C=CCn1c(C)cc(C(=O)CSc2nc3ccccc3o2)c1C", "viability": "85.6%"}
{"molecule": "Cn1c(=O)c2c(nc(NCCCO)n2C/C=C/c2ccccc2)n(C)c1=O", "viability": "98%"}
{"molecule": "N#CC1=C(SCC(=O)c2cc3ccccc3oc2=O)NC(=O)C(C#N)C12CCCC2 (configuration not stated)", "viability": "80.1%"}
{"molecule": "CC1C=CC(C)C(C(=O)O)C1C(=O)O (configuration not stated)", "viability": "98.3%"}
{"molecule": "COc1ccc(NC(=O)CS(=O)CC(=O)Nc2cc(Cl)ccc2OC)cc1 (configuration not stated)", "viability": "92.1%"}
{"molecule": "CCN(CC)CC#CCOC(=O)C(O)(c1ccccc1)C1CCCCC1 (configuration not stated)", "viability": "72.1%"}
{"molecule": "CCOC(=O)c1[nH]c(C)c(C(=O)N2CCN(c3ccc(F)cc3)CC2)c1C", "viability": "90.2%"}
{"molecule": "O=C(NCc1ccc2c(c1)OCO2)c1ccccn1", "viability": "85.2%"}
{"molecule": "COc1ccc(-n2nnnc2-c2cccc(OC)c2)cc1", "viability": "61.1%"}
{"molecule": "Cc1ccc2nsnc2c1S(=O)(=O)N(Cc1cc2cccc(C)c2[nH]c1=O)CC1CCCO1 (configuration not stated)", "viability": "21.4%"}
{"molecule": "CN(C1CCS(=O)(=O)C1)S(=O)(=O)c1cccc2nsnc12 (configuration not stated)", "viability": "100%"}
{"molecule": "CCOC(=O)C1CCN(S(=O)(=O)c2cc(Cl)c(C)cc2OC)CC1", "viability": "94.6%"}
{"molecule": "CCCc1nnc(NC(=O)CCC(=O)N2CCN(CCOc3ccc(C)cc3)CC2)s1", "viability": "99.4%"}
{"molecule": "CCc1nnc(NC(=O)c2ccc(S(=O)(=O)NC3CCCCC3)cc2)s1", "viability": "37.1%"}
{"molecule": "CC(=O)N1C(=O)C2(Nc3ccccc3N2)c2ccccc21", "viability": "88.1%"}
{"molecule": "O=C(CSc1nnnn1-c1ccc(Cl)cc1)NC(=O)Nc1ccc2c(c1)OCCO2", "viability": "74.8%"}
{"molecule": "COc1ccc(-n2c(SCc3ccc(C#N)cc3)nnc2-c2ccccn2)cc1", "viability": "85%"}
{"molecule": "COc1ccc(NC(=O)CN2CCN(S(=O)(=O)c3ccc(Cl)cc3)CC2)cc1", "viability": "93.1%"}
{"molecule": "CC/C(O)=C(/C#N)c1nnc2n1CCCCC2", "viability": "86.5%"}
{"molecule": "COCCNC(=O)C1CCCN(c2ncccn2)C1 (configuration not stated)", "viability": "98.5%"}
{"molecule": "O=C(CS(=O)CC(=O)Nc1cccc2c1CCCC2)Nc1ccc(F)cc1 (configuration not stated)", "viability": "97.8%"}
{"molecule": "CCOC(=O)CSc1nnc(Cn2nnc(-c3ccccc3)n2)n1CC", "viability": "92.7%"}
{"molecule": "O=C(O)CCNc1ccc2c(c1)OCCO2", "viability": "79.6%"}
{"molecule": "CCOC(=O)c1[nH]nc(N)c1NC(=O)c1ccc(Cl)cc1Cl", "viability": "83.8%"}
{"molecule": "O=C(Nc1c(-c2ccccc2)nc2ccccn12)c1ccco1", "viability": "86.9%"}

###

Consider the following compounds and their measured inhibition readings.
# methodSummary: inhibitors of the yeast RAM network, pilot screen, dse1pr::URA3 reporter, 5-FOA selection (AID 869);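 further: 0% = DMSO wells with no growth and 100% = 10 µM 1-NA-PP1 with full growth; RAM network block rescues cells from 5-FOA so hits raise OD615 growth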
# experimentalConditions: S. cerevisiae dse1pr::URA3 5-FOA growth, OD615, 2 d; at 10 µM; stronger effect = higher value; strain carries analog-sensitive mutant Cbk1 kinase
parameterMeasured: inhibition (%)

{"compound": "COC(=O)C1C(=O)C=C(N2CCOCC2)CC1(C)C (stereo unspecified)", "recordedNumber": 0.685}
{"compound": "O=C1CC(N2CCN(c3nc4ccccc4s3)CC2)C(=O)N1c1ccc(F)cc1 (stereo unspecified)", "recordedNumber": 1.54}
{"compound": "COc1ccc(S(=O)(=O)NCCSc2ccc(C)cc2)cc1OC", "recordedNumber": 1.18}
{"compound": "CCCSc1nnc(Cn2c(=O)sc3ccccc32)n1C", "recordedNumber": 0.415}
{"compound": "COc1ccccc1N1CCN(CC(O)COc2ccc3c(C)cc(=O)oc3c2)CC1 (stereo unspecified)", "recordedNumber": 1.95}
{"compound": "CC(CCCC(C)(C)O)NCCO (stereo unspecified)", "recordedNumber": 2.67}
{"compound": "CCOC(=O)C1CCN(c2c(N3CCN(Cc4ccccc4)CC3)c(=O)c2=O)CC1", "recordedNumber": 1.52}
{"compound": "C=C(C)Cn1c(CCCNC(=O)CC)nc2ccccc21", "recordedNumber": 1.54}
{"compound": "Cc1nn(C)c(C)c1S(=O)(=O)N(CC(=O)Nc1ccccn1)c1ccc(C(C)C)cc1", "recordedNumber": 2}
{"compound": "CCOC(=O)c1c(C)n(C)c2cc(Br)c(C(=O)OC)cc12", "recordedNumber": 1.99}
{"compound": "Cc1ccc2cc(-c3noc(C4CCCO4)n3)c(=O)[nH]c2c1 (stereo unspecified)", "recordedNumber": 0.82}
{"compound": "CC(C)c1ccc(NC(=O)c2cccnc2)cc1", "recordedNumber": 0.32}
{"compound": "Cn1c(C(=O)NCCCN2CCN(c3ccccc3F)CC2)cc2c(=O)n(C)c3ccccc3c21", "recordedNumber": 0.6}
{"compound": "Cc1ccc(Nc2nc(N3CCOCC3)nc(N3CCOCC3)n2)cc1", "recordedNumber": 1.06}
{"compound": "COc1cc(OC)cc(C(=O)Nc2cccc(C(C)=O)c2)c1", "recordedNumber": 1.7}
{"compound": "CCN1C(=S)SC(=O)C1=C1C=C(C)N(CCO)C(C)=C1", "recordedNumber": 1.45}
{"compound": "COc1cccc(CNC(=O)CN(c2cc(C)cc(C)c2)S(=O)(=O)c2c(C)noc2C)c1", "recordedNumber": 1.34}
{"compound": "Cc1ccc(CNC(=O)CN(C)S(=O)(=O)c2cccc3cccnc23)cc1", "recordedNumber": 2.25}
{"compound": "CC1CCN(C(=O)CSc2nc(N)c3c4c(sc3n2)CN(C)CC4)CC1", "recordedNumber": 0.905}
{"compound": "COc1ccc(Cl)cc1N1C(=O)C2CCCN2C1c1ccc(F)c(F)c1 (stereo unspecified)", "recordedNumber": 1.33}
{"compound": "O=C(NCc1nc2ccccc2[nH]1)c1ccc(S(=O)(=O)N2CCOCC2)cc1", "recordedNumber": 1.77}
{"compound": "CC(NC(=O)CSc1ncnc2nc[nH]c12)c1ccccc1 (stereo unspecified)", "recordedNumber": 0.755}
{"compound": "COc1ccc(S(=O)(=O)Cc2ccc(C(=O)N3CCN(c4ccc(Cl)cc4)CC3)o2)cc1", "recordedNumber": 0.375}
{"compound": "c1coc(Cn2c(SCc3nc4ccccc4[nH]3)nnc2-c2cccs2)c1", "recordedNumber": 3.64}
{"compound": "c1cn2cc(-c3ccc4c(c3)OCO4)nc2s1", "recordedNumber": 1.96}
{"compound": "CCOC(=O)C1C(=O)CC(C)(O)C(C(=O)OCC)C1/C=C/c1ccccc1 (stereo unspecified)", "recordedNumber": 0.605}
{"compound": "O=C(Nc1ccc2nc(-c3cccnc3)[nH]c2c1)c1ccco1", "recordedNumber": 0.845}
{"compound": "Cc1ccc(Cc2c(C)nc3nc(SCC(=O)NCc4ccco4)nn3c2C)cc1", "recordedNumber": 0.455}
{"compound": "Cc1ccc(S(=O)(=O)c2cccc(S(=O)(=O)N3CCCC3)c2)cc1S(=O)(=O)N1CCCC1", "recordedNumber": 1.4}
{"compound": "Cc1nnc(NC(=O)CCCCCN2C(=O)C3C4C=CC(C4)C3C2=O)s1 (stereo unspecified)", "recordedNumber": -0.595}
{"compound": "COc1ccc(-c2nc(SC)n(C)c(=O)c2C#N)cc1OC", "recordedNumber": 0.12}
{"compound": "Cc1ccc(C)c(SCC(=O)OCC(=O)c2ccco2)c1", "recordedNumber": 0.705}
{"compound": "CCOC(=O)COc1cc2c(C(=O)OCC)c(C)oc2cc1Br", "recordedNumber": 1.04}
{"compound": "O=C(O)c1ccc(CSc2nnc(-c3ccco3)o2)cc1", "recordedNumber": 0.595}
{"compound": "Cn1cnnc1SCc1ccc(C(=O)O)cc1", "recordedNumber": 1.06}
{"compound": "CCCCn1c(NC(=O)c2ccccc2)nc2ccccc21", "recordedNumber": -0.145}
{"compound": "CCc1nnc(NC(=O)C2Cc3ccccc3C(=O)O2)s1 (stereo unspecified)", "recordedNumber": 1.32}
{"compound": "COc1ccc(Nc2nnc(Cc3ccccc3)c(=O)[nH]2)c(OC)c1", "recordedNumber": 1.52}
{"compound": "CC(C)Sc1nc(O)c(Cc2ccccc2)c(=O)[nH]1", "recordedNumber": 2.81}
{"compound": "COc1ccc(-c2cc(N)n(S(=O)(=O)Cc3ccccc3)n2)c(OC)c1", "recordedNumber": 2.42}
{"compound": "O=C(O)c1ccc(N2CCCCCC2)c(N2C(=O)c3ccccc3C2=O)c1", "recordedNumber": 0.945}
{"compound": "Cc1ccccc1NC(=O)c1ccc(S(=O)(=O)N(C)C)cc1", "recordedNumber": 2.17}
{"compound": "CCC(C)N1CC23C=CC(O2)C(C(=O)OC)C3C1=O (stereo unspecified)", "recordedNumber": 0.115}
{"compound": "COc1ccc(OC)c(NC(=O)c2cnc3n(c2=O)CCS3)c1", "recordedNumber": 2.48}
{"compound": "c1ccc(-c2nnc(SCc3nc4ccccc4[nH]3)n2Cc2ccco2)nc1", "recordedNumber": 0.04}
{"compound": "COc1cccc(-c2nc(CS(=O)CC(=O)O)c(C)o2)c1 (stereo unspecified)", "recordedNumber": 1.31}
